biological target: Phosphatidylinositol 4,5-bisphosphate 3-kinase catalytic subunit alpha isoform (Homo sapiens); assay: Inhibition of human recombinant p110alpha
pIC50: −log10 of the molar value.
measuredParameter: pIC50

Examples from the recorded data:
1. Cc1ccc([N+](=O)[O-])cc1S(=O)(=O)N(C)/N=C/c1ccnc2ccccc12 ... 5.64
2. Cc1ccc([N+](=O)[O-])cc1S(=O)(=O)N(C)/N=C/c1cncc2ccc(Br)cc12 ... 5.66

a = Cc1ccc([N+](=O)[O-])cc1S(=O)(=O)N(C)/N=C/c1onc2ccccc12
b = Cc1ccc([N+](=O)[O-])cc1S(=O)(=O)N(C)/N=C/c1cnc2ccccn12
Kindly compare a with b and tell me which has the lower pIC50 figure. Could you answer with the label of the item you picked?
a

###

Here, each record is paired with measured pIC50 data.
target: Phosphatidylinositol 4,5-bisphosphate 3-kinase catalytic subunit alpha isoform (Homo sapiens); assay: Inhibition of human recombinant p110alpha
pIC50: −log10 of the molar value.

Solved cases (5 shown):
1) Cc1ccc([N+](=O)[O-])cc1S(=O)(=O)N(C)/N=C/c1cncc2c(Br)cccc12 ... < 5.00
2) Cc1ccc([N+](=O)[O-])cc1S(=O)(=O)N(C)/N=C/c1cncn1C ... < 5.00
3) Cc1ccc([N+](=O)[O-])cc1S(=O)(=O)N(C)/N=C/c1cccc2ccccc12 ... < 5.00
4) Cc1ccc([N+](=O)[O-])cc1S(=O)(=O)N(C)/N=C/c1cncc2ccccc12 ... 6.10
5) Cc1ccc([N+](=O)[O-])cc1S(=O)(=O)N(C)/N=C/c1cn(C)c2ccccc12 ... < 5.00

Can you look up the measured pIC50 of Cc1ccc([N+](=O)[O-])cc1S(=O)(=O)N(C)/N=C/c1coc2ccccc12 for me?
< 5.00

Try this compound next: Cc1ccc([N+](=O)[O-])cc1S(=O)(=O)N(C)/N=C/c1ncn2ccccc12
< 5.00

###

pIC50: recorded values
target: Phosphatidylinositol 4,5-bisphosphate 3-kinase catalytic subunit delta isoform (Homo sapiens); assay: Inhibition of human recombinant p110delta
Sequence (O00329 whole entry, canonical isoform): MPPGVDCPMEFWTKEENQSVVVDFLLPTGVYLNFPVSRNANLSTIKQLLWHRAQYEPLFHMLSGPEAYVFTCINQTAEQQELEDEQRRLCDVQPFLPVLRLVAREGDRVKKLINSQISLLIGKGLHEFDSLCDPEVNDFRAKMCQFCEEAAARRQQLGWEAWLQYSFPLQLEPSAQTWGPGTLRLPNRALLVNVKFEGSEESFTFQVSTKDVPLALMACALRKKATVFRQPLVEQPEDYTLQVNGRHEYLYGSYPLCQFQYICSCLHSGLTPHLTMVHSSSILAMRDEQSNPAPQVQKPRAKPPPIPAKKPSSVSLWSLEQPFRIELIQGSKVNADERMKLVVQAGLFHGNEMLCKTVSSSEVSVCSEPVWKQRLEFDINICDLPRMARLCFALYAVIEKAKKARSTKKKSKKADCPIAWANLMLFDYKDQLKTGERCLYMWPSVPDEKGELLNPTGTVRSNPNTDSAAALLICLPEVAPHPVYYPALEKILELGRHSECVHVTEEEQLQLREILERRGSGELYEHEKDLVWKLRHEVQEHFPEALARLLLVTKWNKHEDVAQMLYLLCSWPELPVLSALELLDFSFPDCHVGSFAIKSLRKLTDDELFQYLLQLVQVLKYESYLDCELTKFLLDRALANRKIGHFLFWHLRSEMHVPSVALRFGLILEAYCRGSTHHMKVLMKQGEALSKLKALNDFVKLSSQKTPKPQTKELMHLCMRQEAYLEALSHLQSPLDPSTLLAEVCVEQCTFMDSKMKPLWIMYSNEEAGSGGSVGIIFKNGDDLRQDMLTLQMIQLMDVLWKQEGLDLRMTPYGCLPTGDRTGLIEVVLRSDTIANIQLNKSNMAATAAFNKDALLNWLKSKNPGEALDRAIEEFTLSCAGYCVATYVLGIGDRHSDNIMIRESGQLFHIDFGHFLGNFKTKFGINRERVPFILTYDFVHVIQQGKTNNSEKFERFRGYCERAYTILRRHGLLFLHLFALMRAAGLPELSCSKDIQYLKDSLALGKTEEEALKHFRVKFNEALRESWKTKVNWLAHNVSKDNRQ
pIC50: −log10 of the molar value.

Past entries and their recorded results:
1. Cc1ccc([N+](=O)[O-])cc1S(=O)(=O)N(C)/N=C/c1cnc2ccccc2c1 ... < 5.00
2. Cc1ccc([N+](=O)[O-])cc1S(=O)(=O)N(C)/N=C/c1cncc2ccccc12 ... 5.44
3. Cc1ccc([N+](=O)[O-])cc1S(=O)(=O)N(C)/N=C/c1csc2ccccc12 ... < 5.00
4. Cc1ccc([N+](=O)[O-])cc1S(=O)(=O)N(C)/N=C/c1onc2ccccc12 ... < 5.00
5. Cc1ccc([N+](=O)[O-])cc1S(=O)(=O)N(C)/N=C/c1cnc2ccccn12 ... 5.27
6. Cc1ccc([N+](=O)[O-])cc1S(=O)(=O)N(C)/N=C/c1cncn1C ... < 5.00

Now look at this one.
Which pIC50 value is on record for Cc1ccc([N+](=O)[O-])cc1S(=O)(=O)N(C)/N=C/c1cnc2n1CCCC2 ?
< 5.00

###

target: Phosphatidylinositol 4,5-bisphosphate 3-kinase catalytic subunit alpha isoform (Homo sapiens, UniProt P42336); experiment: Inhibition of human recombinant p110alpha
Sequence (P42336 whole entry, canonical isoform): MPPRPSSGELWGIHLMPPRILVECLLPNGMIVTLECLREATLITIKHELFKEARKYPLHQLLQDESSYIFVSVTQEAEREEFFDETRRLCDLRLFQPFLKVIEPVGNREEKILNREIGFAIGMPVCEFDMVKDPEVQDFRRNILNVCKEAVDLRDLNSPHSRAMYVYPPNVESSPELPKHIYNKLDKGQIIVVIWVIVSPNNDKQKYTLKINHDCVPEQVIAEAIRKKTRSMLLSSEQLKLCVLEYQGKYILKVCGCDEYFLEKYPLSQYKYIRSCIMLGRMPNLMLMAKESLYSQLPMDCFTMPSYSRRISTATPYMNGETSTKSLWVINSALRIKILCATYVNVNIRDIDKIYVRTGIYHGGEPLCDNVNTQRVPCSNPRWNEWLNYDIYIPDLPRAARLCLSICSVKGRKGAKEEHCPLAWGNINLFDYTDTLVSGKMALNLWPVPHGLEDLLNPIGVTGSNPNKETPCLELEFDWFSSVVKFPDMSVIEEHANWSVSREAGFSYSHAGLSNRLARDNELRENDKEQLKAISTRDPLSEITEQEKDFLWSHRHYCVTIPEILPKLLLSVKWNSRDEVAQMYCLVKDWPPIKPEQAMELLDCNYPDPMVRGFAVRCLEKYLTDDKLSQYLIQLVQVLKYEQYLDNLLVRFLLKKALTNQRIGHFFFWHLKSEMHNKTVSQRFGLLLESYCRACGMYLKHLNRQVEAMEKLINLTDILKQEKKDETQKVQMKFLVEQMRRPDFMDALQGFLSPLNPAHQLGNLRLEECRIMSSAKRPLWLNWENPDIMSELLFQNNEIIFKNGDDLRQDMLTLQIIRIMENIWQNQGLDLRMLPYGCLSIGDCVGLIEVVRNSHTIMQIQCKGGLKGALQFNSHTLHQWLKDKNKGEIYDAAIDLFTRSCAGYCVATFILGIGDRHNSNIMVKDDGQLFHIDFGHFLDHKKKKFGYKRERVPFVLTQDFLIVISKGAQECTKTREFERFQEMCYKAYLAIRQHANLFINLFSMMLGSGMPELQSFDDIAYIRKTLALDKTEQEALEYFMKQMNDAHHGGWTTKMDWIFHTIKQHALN
pIC50: −log10 of the molar value.
Documented pIC50 across a set of compounds

Some entries whose results are on file:
1. Cc1ccc([N+](=O)[O-])cc1S(=O)(=O)N(C)/N=C/c1cnc2ccccc2c1 ... < 5.00
2. Cc1ccc([N+](=O)[O-])cc1S(=O)(=O)N(C)/N=C/c1csc2ccccc12 ... < 5.00
3. Cc1ccc([N+](=O)[O-])cc1S(=O)(=O)N(C)/N=C/c1cnc2n1CCCC2 ... < 5.00

Look up pIC50: Cc1ccc([N+](=O)[O-])cc1S(=O)(=O)N(C)/N=C/c1ncc2ccccn12
< 5.00

Try Cc1ccc([N+](=O)[O-])cc1S(=O)(=O)N(C)/N=C/c1cncc2cc(Br)ccc12 next.
< 5.00
